# MEASURED TARGET: α-chymotrypsin from bovine pancreas type II (Bos taurus, UniProt P00766)
# Construct: freshly prepared α-chymotrypsin from bovine pancreas type II, ≥40 U/mg; purchased; host or cells: bovine pancreas
# METHOD: Chymotrypsin stability test
# Format: in vitro ADME
# CONDITION PARAMETERS: bovine; read-out: t1/2 chymotrypsin stability assay (converted)
METRIC: half-life (min)
Value expressed in min; do not type the unit.

input: Name the recorded half-life for Ac-VINEEYKIWKKNTPFL-NH2 [compound 13, reference compound] .
output: 30

----------
# METHOD: circular dichroism
# CONDITION PARAMETERS: deionized water; pH unbuffered; 20 °C; 25 uM
Starred links: 1 amine or outer side, 2 acyl side, 3 side chain; linkers in the order of their positions; H or OH if unused. Positions of bridges follow the written chain, without caps; N, C: chain ends. Residues, ends and D or L forms follow the SMILES beside them. X4 = C(CCC[*:2])CC[*:1]; X1 = C(C[*:1])C[*:2]
METRIC: helicity (%)
Give the value, in units of %, as a plain number.

COMPOUND | helicity [%]
CC[C@H](C)[C@@H]1NC(=O)[C@@H](NC(=O)[C@H](Cc2ccc(O)cc2)NC(=O)[C@H](CCC(=O)O)NC(=O)[C@H](CCC(=O)O)NC(=O)[C@H](CC(N)=O)NC(=O)[C@@H](NC(=O)[C@@H](NC(C)=O)C(C)C)[C@@H](C)CC)CSCCCCCCSC[C@@H](C(=O)N[C@@H](CC(N)=O)C(=O)N[C@H](C(=O)N2CCC[C@H]2C(=O)N[C@@H](Cc2ccccc2)C(=O)N[C@@H](CC(C)C)C(N)=O)[C@@H](C)O)NC(=O)[C@H](CCCCN)NC(=O)[C@H](Cc2c[nH]c3ccccc23)NC1=O (Ac-VINEEYCIWKCNTPFL-NH2; linker 7-11 via X4) | 19.4

input: Requested read-out: helicity. Entry: CC[C@H](C)[C@@H]1NC(=O)[C@@H](NC(=O)[C@H](Cc2ccc(O)cc2)NC(=O)[C@H](CCC(=O)O)NC(=O)[C@H](CCC(=O)O)NC(=O)[C@H](CC(N)=O)NC(=O)[C@@H](NC(=O)[C@@H](NC(C)=O)C(C)C)[C@@H](C)CC)CSCCCSC[C@@H](C(=O)N[C@@H](CC(N)=O)C(=O)N[C@H](C(=O)N2CCC[C@H]2C(=O)N[C@@H](Cc2ccccc2)C(=O)N[C@@H](CC(C)C)C(N)=O)[C@@H](C)O)NC(=O)[C@H](CCCCN)NC(=O)[C@H](Cc2c[nH]c3ccccc23)NC1=O (Ac-VINEEYCIWKCNTPFL-NH2; linker 7-11 via X1)
output: 18.4

----------
# METHOD: circular dichroism
# CONDITION PARAMETERS: deionized water; pH unbuffered; 20 °C; 25 uM
Starred links: 1 amine or outer side, 2 acyl side, 3 side chain; linkers in the order of their positions; H or OH if unused. Positions of bridges follow the written chain, without caps; N, C: chain ends. Residues, ends and D or L forms follow the SMILES beside them. X6 = C(=C\C[*:2])/C[*:1]; X2 = C(CC[*:1])CC[*:2]; X1 = C(C[*:1])C[*:2]
Entries annotated with measured helicity
# output: bare number, implied unit %

COMPOUND | METRIC | EXPERIMENTAL VALUE
CC[C@H](C)[C@@H]1NC(=O)[C@@H](NC(=O)[C@H](Cc2ccc(O)cc2)NC(=O)[C@H](CCC(=O)O)NC(=O)[C@H](CCC(=O)O)NC(=O)[C@H](CC(N)=O)NC(=O)[C@@H](NC(=O)[C@@H](NC(C)=O)C(C)C)[C@@H](C)CC)CSCCCCCSC[C@@H](C(=O)N[C@@H](CC(N)=O)C(=O)N[C@H](C(=O)N2CCC[C@H]2C(=O)N[C@@H](Cc2ccccc2)C(=O)N[C@@H](CC(C)C)C(N)=O)[C@@H](C)O)NC(=O)[C@H](CCCCN)NC(=O)[C@H](Cc2c[nH]c3ccccc23)NC1=O (Ac-VINEEYCIWKCNTPFL-NH2; linker 7-11 via X2) | helicity | 5.68
CC[C@H](C)[C@H](NC(=O)[C@@H]1CSC/C=C/CSC[C@H](NC(=O)[C@@H](NC(=O)[C@@H](NC(C)=O)C(C)C)[C@@H](C)CC)C(=O)N[C@@H](CCC(=O)O)C(=O)N[C@@H](CCC(=O)O)C(=O)N[C@@H](Cc2ccc(O)cc2)C(=O)N1)C(=O)N[C@@H](Cc1c[nH]c2ccccc12)C(=O)N[C@@H](CCCCN)C(=O)N[C@@H](CCCCN)C(=O)N[C@@H](CC(N)=O)C(=O)N[C@H](C(=O)N1CCC[C@H]1C(=O)N[C@@H](Cc1ccccc1)C(=O)N[C@@H](CC(C)C)C(N)=O)[C@@H](C)O (Ac-VICEEYCIWKKNTPFL-NH2; linker 3-7 via X6) | helicity | 19
CC[C@H](C)[C@H](NC(=O)[C@H](CCC(N)=O)NC(=O)[C@@H](NC(=O)[C@@H]1CSCCCSC[C@H](NC(=O)[C@H](CC(C)C)NC(=O)[C@H](Cc2c[nH]c3ccccc23)NC(=O)[C@H](CCC(=O)O)NC(C)=O)C(=O)N[C@@H](CCC(=O)O)C(=O)N[C@@H](CCCCN)C(=O)N[C@@H]([C@@H](C)O)C(=O)N1)[C@@H](C)O)C(=O)N[C@@H](CCC(=O)O)C(=O)N[C@@H](CCC(=O)O)C(=O)N[C@@H](Cc1ccccc1)C(N)=O (Ac-EWLCEKTCTQIEEF-NH2; linker 4-8 via X1) | helicity | 38.4

Now examine the next entry.
input: Would you mind telling me what helicity value was observed for CC[C@H](C)[C@@H]1NC(=O)[C@@H](NC(=O)[C@H](Cc2ccc(O)cc2)NC(=O)[C@H](CCC(=O)O)NC(=O)[C@H](CCC(=O)O)NC(=O)[C@H](CC(N)=O)NC(=O)[C@@H](NC(=O)[C@@H](NC(C)=O)C(C)C)[C@@H](C)CC)CSC/C=C/CSC[C@@H](C(=O)N[C@@H](CC(N)=O)C(=O)N[C@H](C(=O)N2CCC[C@H]2C(=O)N[C@@H](Cc2ccccc2)C(=O)N[C@@H](CC(C)C)C(N)=O)[C@@H](C)O)NC(=O)[C@H](CCCCN)NC(=O)[C@H](Cc2c[nH]c3ccccc23)NC1=O (Ac-VINEEYCIWKCNTPFL-NH2; linker 7-11 via X6) ?
output: 24.2

----------
# METHOD: circular dichroism
# CONDITION PARAMETERS: deionized water; pH unbuffered; 20 °C; 25 uM
Starred links: 1 amine or outer side, 2 acyl side, 3 side chain; linkers in the order of their positions; H or OH if unused. Positions of bridges follow the written chain, without caps; N, C: chain ends. Residues, ends and D or L forms follow the SMILES beside them. X2 = C(CC[*:1])CC[*:2]; X1 = C(C[*:1])C[*:2]
METRIC: helicity (%)
Reply with just the number (in %).

MOLECULE | METRIC | EXPERIMENTAL VALUE
CC[C@H](C)[C@H](NC(=O)[C@@H]1CSCCCSC[C@H](NC(=O)[C@@H](NC(=O)[C@@H](NC(C)=O)C(C)C)[C@@H](C)CC)C(=O)N[C@@H](CCC(=O)O)C(=O)N[C@@H](CCC(=O)O)C(=O)N[C@@H](Cc2ccc(O)cc2)C(=O)N1)C(=O)N[C@@H](Cc1c[nH]c2ccccc12)C(=O)N[C@@H](CCCCN)C(=O)N[C@@H](CCCCN)C(=O)N[C@@H](CC(N)=O)C(=O)N[C@H](C(=O)N1CCC[C@H]1C(=O)N[C@@H](Cc1ccccc1)C(=O)N[C@@H](CC(C)C)C(N)=O)[C@@H](C)O (Ac-VICEEYCIWKKNTPFL-NH2; linker 3-7 via X1) | helicity | 12.7

Next item in the queue.
input: Which helicity value is on record for CC[C@H](C)[C@H](NC(=O)[C@H](CC(C)C)NC(=O)[C@H](Cc1ccccc1)NC(=O)[C@H](CC(=O)O)NC(=O)[C@H](Cc1c[nH]cn1)NC(=O)[C@H](CCSC)NC(=O)[C@H](CO)NC(=O)[C@@H](NC(=O)[C@@H]1CSCCCCCSC[C@H](NC(=O)[C@H](CC(N)=O)NC(=O)[C@H](CCCNC(=N)N)NC(=O)[C@H](CS)NC(=O)[C@H](CC(C)C)NC(C)=O)C(=O)N[C@@H](CCSC)C(=O)N[C@@H](CC(C)C)C(=O)N[C@@H](Cc2c[nH]cn2)C(=O)N1)C(C)C)C(N)=O (Ac-LCRNCMLHCVSMHDFLI-NH2; linker 5-9 via X2) ?
output: 61.6

----------
# METHOD: circular dichroism
# CONDITION PARAMETERS: deionized water; pH unbuffered; 20 °C; 25 uM
Reported helicity values are given for each entry in this list.
Provide only the numeric value, understood in %.

Please review the entries below; each comes with its answer.
SUBSTANCE | ENDPOINT UNIT | helicity
Ac-VINEEYKIWKKNTPFL-NH2 [compound 13, reference compound] | % | 16.4
Ac-LCRNFMLHLVSMHDFLI-NH2 | % | 59.9
Ac-EWLREKTITQIEEF-NH2 | % | 20.9

input: What does the data say about its helicity? Entry: Ac-TVDKIASALSVLAEEVPQN-NH2 [compound 1, reference compound]
output: 4.8
